Provenance of the data: patent US20240352046A1

I'd appreciate it if you could supply IC50 values for the items below.
- Target: ENPP-1 (Ectonucleotide Pyrophosphatase/Phosphodiesterase 1) (Homo sapiens (Human), UniProt P22413)
- Sequence (P22413 whole entry): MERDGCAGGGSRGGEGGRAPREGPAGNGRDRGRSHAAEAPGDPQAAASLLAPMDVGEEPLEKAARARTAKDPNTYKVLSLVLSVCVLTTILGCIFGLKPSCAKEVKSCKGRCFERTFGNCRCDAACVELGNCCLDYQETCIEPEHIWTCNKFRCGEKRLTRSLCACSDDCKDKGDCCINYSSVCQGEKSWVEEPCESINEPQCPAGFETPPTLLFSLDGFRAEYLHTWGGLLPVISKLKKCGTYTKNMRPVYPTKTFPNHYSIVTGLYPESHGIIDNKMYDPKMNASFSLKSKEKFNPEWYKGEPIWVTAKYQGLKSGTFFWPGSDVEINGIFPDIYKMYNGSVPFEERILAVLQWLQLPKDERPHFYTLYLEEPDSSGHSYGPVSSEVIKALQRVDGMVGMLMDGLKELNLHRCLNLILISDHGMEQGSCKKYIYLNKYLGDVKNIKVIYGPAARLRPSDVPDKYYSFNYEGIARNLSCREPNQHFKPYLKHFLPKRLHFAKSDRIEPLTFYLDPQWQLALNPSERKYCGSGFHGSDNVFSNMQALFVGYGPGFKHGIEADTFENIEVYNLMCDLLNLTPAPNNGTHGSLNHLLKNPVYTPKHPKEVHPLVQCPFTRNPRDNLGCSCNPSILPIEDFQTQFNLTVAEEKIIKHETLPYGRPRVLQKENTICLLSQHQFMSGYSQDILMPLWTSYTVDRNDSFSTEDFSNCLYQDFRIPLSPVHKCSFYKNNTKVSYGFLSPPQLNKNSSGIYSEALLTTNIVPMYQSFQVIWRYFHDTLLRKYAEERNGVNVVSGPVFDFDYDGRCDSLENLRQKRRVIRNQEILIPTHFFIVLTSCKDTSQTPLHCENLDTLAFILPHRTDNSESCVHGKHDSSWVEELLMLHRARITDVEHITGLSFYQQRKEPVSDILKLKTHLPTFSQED
- Experiment summary: ENPP1 inhibition assay (AMP Glo, cGAMP substrate)
- Format: biochemical
- Test settings: cGAMP 20 μM substrate, ENPP1 1 nM

Below, each entry is followed by its recorded IC50 result.
# Structure string, IC50
rows = [
    ("Cc1cc(Cl)n2nc(-c3ccc(F)cc3)nc(N3CC4(CC(N(C)S(N)(=O)=O)C4)C3)c12", "> 3 µM"),
    ("Cc1cc(Cl)n2ncnc(N3CC(CCN(C)S(N)(=O)=O)C3)c12", "> 2.25 µM"),
    ("Cc1cc(Cl)n2nc(C3CC3)nc(N3CC4(CC(N(C)S(N)(=O)=O)C4)C3)c12", "> 2.39 µM"),
]

Please turn your attention to the following entry.
IC50 recorded for this compound, `Cc1c(Br)cn2ncnc(N3CC(CCNS(N)(=O)=O)C3)c12` , is > 3 µM
